- TARGET UNDER TEST: proMMP9(20-445;ΔFnII) (SEQ ID NO:6) (Homo sapiens, UniProt P14780, DEL216-390)
- Construct: start methionine (N)
- Sequence (P14780 with tags, fused parts or gaps DEL216-390): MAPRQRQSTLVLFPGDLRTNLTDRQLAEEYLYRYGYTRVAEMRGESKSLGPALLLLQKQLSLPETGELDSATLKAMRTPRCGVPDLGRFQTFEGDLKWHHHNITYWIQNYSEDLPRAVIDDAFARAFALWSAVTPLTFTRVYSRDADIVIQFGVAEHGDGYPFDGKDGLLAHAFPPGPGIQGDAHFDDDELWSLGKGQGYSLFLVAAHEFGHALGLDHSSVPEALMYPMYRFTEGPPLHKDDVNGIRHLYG
- ASSAY METHOD TEXT: ThermoFluor binding assay with proMMP9(20-445;ΔFnII)
# pKd per entry
Kindly note that pKd refers to -log10 of the concentration in mol/L and answer with the value alone.

{"columns": ["COMPOUND", "pKd"],
 "data": [
  ["CCOc1ccccc1Nc1nc2c(ccc3sc(Nc4ccccc4OCC)nc32)s1 [Example 4]", 4.17],
  ["CCc1ccccc1Nc1nc2c(ccc3c2ncn3C)s1 [Example 62]", 5.41],
  ["COc1cc(C(N)=O)ccc1Nc1nc2c(ccc3c2ncn3C)s1 [Example 51]", 5.51],
  ["COc1ccc(C#N)cc1Nc1nc2c(ccc3c2ccn3C)s1 [Example 85]", 6.24],
  ["CCCn1c(C)nc2c3nc(Nc4cc(C(N)=O)ccc4OC(C)C)sc3ccc21 [Example 36]", 6.77]
]}

# next compound below
Entry COc1ccc(S(C)(=O)=O)cc1Nc1nc2c(ccc3cnn(C)c32)s1 [Example 150] , pKd reported as 5.06

----------
- TARGET UNDER TEST: proMMP9(20-445;ΔFnII) (SEQ ID NO:6) (Homo sapiens, UniProt P14780, DEL216-390)
- Construct: start methionine (N)
- ASSAY METHOD TEXT: ThermoFluor binding assay with proMMP9(20-445;ΔFnII)
OBSERVATION TYPE: log10 Kd (log10 of the value in nM)
All values: base-10 log of Kd in nM.

Take a look at these entries with their results.
{"columns": ["SAMPLE SMILES", "TARGET UNDER TEST", "log10 Kd"],
 "data": [
  ["CCS(=O)(=O)c1ccc(OC)c(Nc2nc3c(ccc4c3ncn4C)s2)c1", "proMMP9(20-445;ΔFnII) (SEQ ID NO:6) (Homo sapiens, UniProt P14780, DEL216-390)", 3.45],
  ["CCn1c(C)nc2ccc3sc(Nc4cc(S(N)(=O)=O)ccc4OC)nc3c21", "proMMP9(20-445;ΔFnII) (SEQ ID NO:6) (Homo sapiens, UniProt P14780, DEL216-390)", 3.08],
  ["COc1ccccc1Nc1nc2c(s1)CCCc1nc(N)sc1-2", "proMMP9(20-445;ΔFnII) (SEQ ID NO:6) (Homo sapiens, UniProt P14780, DEL216-390)", 3.38]
]}

For the compound COc1ccc(C#N)cc1Nc1nc2c(ccc3c2ncn3C)s1 , the measured log10 Kd on proMMP9(20-445;ΔFnII) (SEQ ID NO:6) (Homo sapiens, UniProt P14780, DEL216-390) was 1.94

Reported log10 Kd (proMMP9(20-445;ΔFnII) (SEQ ID NO:6) (Homo sapiens, UniProt P14780, DEL216-390)) for entry COc1ccc(S(C)(=O)=O)cc1Nc1nc2c(ccc3nc(C)n(CC(F)(F)F)c32)s1 is 2.84

Record Cc1nc2ccc3sc(Nc4cc(S(C)(=O)=O)ccc4OC(C)C)nc3c2n1C / proMMP9(20-445;ΔFnII) (SEQ ID NO:6) (Homo sapiens, UniProt P14780, DEL216-390), log10 Kd recorded as 2.94

Source listed as patent US20120129811A1.
